test system: Rattus norvegicus; experiment: In vivo inhibition of beta-adrenoceptor in Wistar rat assessed as inhibition of isoproterenol-induced tachycardia at 4 mg/kg, iv relative to control; format: functional
Each entry below carries its recorded inhibition in vivo at 4 mg/kg.
Write the answer as a number in %, unit excluded.

Solved entries (count: 2):
Looking up CC(C)NCC(O)c1cc(Br)c(Br)s1.Cl (racemic) , I see its inhibition in vivo at 4 mg/kg listed as 100

Sure, the documented inhibition in vivo at 4 mg/kg for CC(C)(C)NCC(O)c1sc(Br)c(Br)c1Br (racemic) is 90

Let us move to another entry and its inhibition in vivo at 4 mg/kg.
In plain terms, CC(C)NCC(O)c1ccc(Br)s1.Cl (racemic) has a documented inhibition in vivo at 4 mg/kg of 87
